- SYSTEM TESTED: Epidermal growth factor receptor (Homo sapiens, UniProt P00533)
- Sequence (P00533 whole entry): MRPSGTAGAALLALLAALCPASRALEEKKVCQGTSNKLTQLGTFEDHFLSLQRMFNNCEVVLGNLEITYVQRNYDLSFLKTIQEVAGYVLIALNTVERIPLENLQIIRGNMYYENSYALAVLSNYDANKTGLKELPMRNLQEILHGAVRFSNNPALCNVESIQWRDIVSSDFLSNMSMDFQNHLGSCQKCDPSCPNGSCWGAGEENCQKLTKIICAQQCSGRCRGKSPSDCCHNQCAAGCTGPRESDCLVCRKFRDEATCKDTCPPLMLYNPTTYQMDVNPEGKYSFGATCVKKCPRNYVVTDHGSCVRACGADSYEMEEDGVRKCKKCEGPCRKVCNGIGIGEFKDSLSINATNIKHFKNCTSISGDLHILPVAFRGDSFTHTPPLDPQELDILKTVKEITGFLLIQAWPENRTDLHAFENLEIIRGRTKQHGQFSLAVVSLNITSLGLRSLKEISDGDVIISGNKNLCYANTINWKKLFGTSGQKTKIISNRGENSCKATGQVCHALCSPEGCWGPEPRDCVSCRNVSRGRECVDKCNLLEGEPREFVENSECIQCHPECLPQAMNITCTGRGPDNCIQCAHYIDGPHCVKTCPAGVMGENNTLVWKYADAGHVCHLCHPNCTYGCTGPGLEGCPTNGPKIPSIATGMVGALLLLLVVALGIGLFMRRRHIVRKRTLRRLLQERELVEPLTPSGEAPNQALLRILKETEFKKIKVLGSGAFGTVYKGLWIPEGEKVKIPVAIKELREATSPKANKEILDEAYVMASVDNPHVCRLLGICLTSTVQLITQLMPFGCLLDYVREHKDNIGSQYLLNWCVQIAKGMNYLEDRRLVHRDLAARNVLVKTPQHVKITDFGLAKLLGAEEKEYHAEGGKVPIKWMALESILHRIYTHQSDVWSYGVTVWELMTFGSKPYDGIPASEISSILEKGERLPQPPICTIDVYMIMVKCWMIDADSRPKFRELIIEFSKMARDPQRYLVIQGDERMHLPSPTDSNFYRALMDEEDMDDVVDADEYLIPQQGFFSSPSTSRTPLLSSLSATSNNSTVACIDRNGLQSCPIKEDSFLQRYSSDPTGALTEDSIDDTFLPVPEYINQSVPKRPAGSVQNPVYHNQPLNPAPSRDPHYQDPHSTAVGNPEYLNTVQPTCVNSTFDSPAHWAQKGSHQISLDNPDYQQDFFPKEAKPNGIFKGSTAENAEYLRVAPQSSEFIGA
Kindly apply the following: TRUE if IC50 is less than 800 nM, FALSE in every other case.

- MOL: "CN(C)C/C=C/C(=O)Nc1ccc2ncc(C#N)c(Nc3cccc(Br)c3)c2c1"
  SYSTEM TESTED: "Epidermal growth factor receptor (Homo sapiens, UniProt P00533)"
  CLASS LABEL: "TRUE"

Given N#Cc1cnc2ccc(NC(=O)C#CCN3CCSCC3)cc2c1Nc1cccc(Br)c1 , is recorded IC50 strictly lower than 800 nM?
TRUE

Find out if reported IC50 for CC#CC(=O)Nc1ccc2ncc(C#N)c(Nc3cccc(Br)c3)c2c1 is less than 800 nM
FALSE

Given CC#CC(=O)Nc1cc2c(Nc3cccc(Br)c3)c(C#N)cnc2cc1OC , is recorded IC50 strictly lower than 800 nM?
FALSE

All figures here come from ChEMBL document CHEMBL1145020.
